Exercise: state measured self-cleavage for each of the variants provided.
B1: LINE1-mini (parent)
chain: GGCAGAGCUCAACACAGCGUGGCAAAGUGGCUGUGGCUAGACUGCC

Variants of: B1
EXPERIMENT_DESCRIPTION: self-cleavage, relative activity (ratio to wild type); higher = more cleavage; in vitro, sequencing; the parent is a self-cleaving ribozyme
Respond numerically, and do not add a unit to the figure.

// self-cleavage value for C15A G36A : 0.14

// self-cleavage value for A26G U38G : 0.01

// self-cleavage value for C3U G36U : 0.22

// self-cleavage value for C13G G30U : 0.19

// self-cleavage value for `G2C` : 0.13

// self-cleavage value for A12C U20G : 0.01

// self-cleavage value for G44A C46G : 0.12

// self-cleavage value for G5C A16U : 0.04

// self-cleavage value for G7A A41C : 0.21

// self-cleavage value for C13A C15A : 0.08

// self-cleavage value for G1A G29C : 0.28

// self-cleavage value for A25C C46A : 0.36

// self-cleavage value for C37U C46A : 0.07

// self-cleavage value for A25U G35A : 0.12

// self-cleavage value for G5A C8A : 0.27

// self-cleavage value for C31G C42G : 0.06

// self-cleavage value for G7U G29A : 0.06

// self-cleavage value for G21U A41G : 0.28

// self-cleavage value for A11U G21A : 0.33

// self-cleavage value for C13U A24U : 0.16

// self-cleavage value for `G22A` : 0.81

// self-cleavage value for U28C G40A : 0.09

// self-cleavage value for A4C G19C : 0.07

// self-cleavage value for A16C U34G : 0.05

// self-cleavage value for C37G C46G : 0.17

// self-cleavage value for G17U C42A : 0.05

// self-cleavage value for C3G C10A : 0.05

// self-cleavage value for C18G G40A : 0.05

// self-cleavage value for U32G C37A : 0.09

// self-cleavage value for A25G A26C : 0.49

// self-cleavage value for C18A A41G : 0.13

// self-cleavage value for A14U C42A : 0.21

// self-cleavage value for G21C U38C : 0.48

// self-cleavage value for `U38C` : 0.6

// self-cleavage value for G35U C45A : 0.12

// self-cleavage value for A26C G27A : 0.57

// self-cleavage value for G5C A14G : 0.04

// self-cleavage value for C18U G27C : 0.55

// self-cleavage value for A4C C18U : 0.05

// self-cleavage value for A11C G22U : 0.07

// self-cleavage value for A6U C23G : 0.46

// self-cleavage value for A6C C31G : 0.09

// self-cleavage value for G17C U28C : 0.36

// self-cleavage value for G1A G5C : 0.08

// self-cleavage value for A4C G35U : 0.18

// self-cleavage value for U20G U32G : 0.09
